B1: Pre-mRNA-processing factor 40 homolog B, residues 274 to 332; numbered along this chain, Q6NWY9 (parent)
chain: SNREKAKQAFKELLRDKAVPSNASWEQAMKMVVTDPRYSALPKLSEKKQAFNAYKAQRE

# Variants of: B1
# assayDetails: abundance fitness (aPCA) (normalised: wild type 0, dead -1); higher = more abundant; growth selection in yeast, the domain comes from the species named
# particulars: Homo sapiens
outcomeMeasure: abundance fitness
Give the figure by itself; no unit, no explanation.

In the examples that follow, each entry is paired with its recorded abundance fitness.
{"residueChange": "Y38M", "numericValue": -0.613}
{"residueChange": "K43F", "numericValue": -0.593}
{"residueChange": "R3P", "numericValue": 0.034}
{"residueChange": "F10T", "numericValue": -0.048}
{"residueChange": "S21R", "numericValue": -0.083}
{"residueChange": "A9T", "numericValue": 0.117}
{"residueChange": "Y38D", "numericValue": -0.346}
{"residueChange": "P20K", "numericValue": -0.654}

(Q) Query (variant): W25H ; field requested: abundance fitness
(A) -0.347

(Q) Query (variant): A9S ; field requested: abundance fitness
(A) -0.106

(Q) Query (variant): N22S ; field requested: abundance fitness
(A) -0.036

(Q) Query (variant): Q49H ; field requested: abundance fitness
(A) -0.407

(Q) Query (variant): N22P ; field requested: abundance fitness
(A) -0.664
